# Tested on: STS26T
# Assay Overview: drug sensitivity score (DSS, CellTox-Green cytotoxicity, 72 h) (DSS (dimensionless)); higher = more cytotoxic; extreme values may be limits of the assay
Assign class by drug sensitivity score: not lower than 3 means class 1; lower than 3 means class 0.

[in] For this compound, is measured drug sensitivity score 3 or higher? COc1cc2c(Oc3ccc4[nH]c(C)cc4c3F)ncnc2cc1OCCCN1CCCC1 [Cediranib] (max concentration tested 1000 nM)
[out] class 0

[in] Can Nc1nc(Cl)nc2c1ncn2[C@H]1C[C@H](O)[C@@H](CO)O1 [Cladribine] (max concentration tested 1000 nM) be said to have drug sensitivity score at or above 3?
[out] class 0

[in] Quick check: does CN1CCc2c(c3ccccc3n2Cc2ccc(C(=O)NO)cc2)C1 [Tubastatin A] (max concentration tested 10000 nM) have drug sensitivity score greater than or equal to 3?
[out] class 0

[in] Does the compound Nc1ccn([C@@H]2O[C@H](CO)[C@@H](O)C2(F)F)c(=O)n1 [Gemcitabine] (max concentration tested 1000 nM) have recorded drug sensitivity score that is 3 or more?
[out] class 1

[in] Would you say COc1cc2c(cc1O)CC[C@@H]1[C@@H]2CC[C@]2(C)[C@@H](O)CC[C@@H]12 [2-methoxyestradiol] (max concentration tested 10000 nM) shows drug sensitivity score at minimum 3?
[out] class 1

[in] # check: drug sensitivity score of COC(=O)C[C@](O)(CCCC(C)(C)O)C(=O)O[C@@H]1C(OC)=C[C@]23CCCN2CCc2cc4c(cc2[C@H]13)OCO4 [Omacetaxine] (max concentration tested 10000 nM) is greater than or equal to 3
[out] class 1
